TARGET: ALK (Homo sapiens, UniProt Q9UM73)
Sequence (Q9UM73 with tags, fused parts or gaps): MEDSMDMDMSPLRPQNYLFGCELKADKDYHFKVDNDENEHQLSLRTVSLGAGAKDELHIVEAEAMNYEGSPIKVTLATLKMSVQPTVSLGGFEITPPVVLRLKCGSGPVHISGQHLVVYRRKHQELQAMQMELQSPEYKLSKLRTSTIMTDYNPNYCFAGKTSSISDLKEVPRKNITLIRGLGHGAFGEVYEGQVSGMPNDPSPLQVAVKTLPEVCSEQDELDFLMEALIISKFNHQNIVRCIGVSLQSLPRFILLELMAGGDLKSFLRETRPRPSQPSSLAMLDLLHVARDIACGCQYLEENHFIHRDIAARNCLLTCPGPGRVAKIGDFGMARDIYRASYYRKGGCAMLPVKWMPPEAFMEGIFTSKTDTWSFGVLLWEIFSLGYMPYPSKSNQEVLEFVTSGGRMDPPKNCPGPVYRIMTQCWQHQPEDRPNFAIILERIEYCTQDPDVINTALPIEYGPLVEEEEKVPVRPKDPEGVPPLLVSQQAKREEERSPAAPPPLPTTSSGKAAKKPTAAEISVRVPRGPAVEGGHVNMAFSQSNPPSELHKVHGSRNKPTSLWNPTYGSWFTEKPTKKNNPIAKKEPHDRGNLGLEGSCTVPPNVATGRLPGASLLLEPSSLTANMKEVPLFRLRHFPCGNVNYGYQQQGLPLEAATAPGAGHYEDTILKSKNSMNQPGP
TEST: ALK kinase assay (Kinase-Glo / AlphaScreen, purified NPM-ALK);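 note: recombinant baculovirus-expressed ALK kinase domain, activity read either as leftover ATP by Kinase-Glo luminescence or as poly(Glu-Tyr) phosphorylation by anti-phosphotyrosine AlphaScreen proximity signal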
Type: biochemical
Parameters: fused to the complete intracytoplasmic portion of ALK containing the functional tyrosine kinase domain; 6xHis; made in house; host or cells: insect cells; the other entry of the earlier key: NPM1 (P06748, Nucleophosmin)
CONDITION_SUMMARY: Table 1; read-out: ALK IC50
pIC50: −log10 of the molar value.
READOUT_NAME: pIC50

{"columns": ["MOLECULE", "ENDPOINT_RESULT"],
 "data": [
  ["Cc1ccc(C(F)(F)F)cc1C[C@H](C)Nc1cc[nH]c(=O)c1-c1nc2cc3c(cc2[nH]1)CN(CCN(C)C)C3=O", "6.00 to 6.60"],
  ["COc1ccc(F)cc1C[C@H](C)Nc1cc[nH]c(=O)c1-c1nc2cc3c(cc2[nH]1)CN(CCN1CCCC1)C3=O", "7.00 to 8.00"],
  ["Cc1cc(F)ccc1C[C@H](C)Nc1cc[nH]c(=O)c1-c1nc2cc3c(cc2[nH]1)C(=O)N(CCN1CCCC1)C3", "7.00 to 8.00"],
  ["C[C@@H](Cc1cccs1)Nc1cc[nH]c(=O)c1-c1nc2cc3c(cc2[nH]1)C(=O)N(CCN1CCCC1)C3=O", "6.60 to 7.00"],
  ["C[C@@H](Cc1cc(F)cc(F)c1F)Nc1cc[nH]c(=O)c1-c1nc2cc3c(cc2[nH]1)CN(CCN1CCCC1)C3", "6.00 to 6.60"],
  ["Cc1ccc(F)cc1C[C@H](C)Nc1cc[nH]c(=O)c1-c1nc2cc3c(cc2[nH]1)CNC3=O", "7.00 to 8.00"],
  ["C[C@@H](Cc1ccccc1Cl)Nc1cc[nH]c(=O)c1-c1nc2cc3c(cc2[nH]1)CN(CCN1CCCC1)C3=O", "6.00 to 6.60"],
  ["C[C@@H](Cc1cc(F)ccc1Br)Nc1cc[nH]c(=O)c1-c1nc2cc3c(cc2[nH]1)CN(CCN1CCCC1)C3=O [drawing 330]", "> 8.00"],
  ["Cc1ccsc1C[C@H](C)Nc1cc[nH]c(=O)c1-c1nc2cc3c(cc2[nH]1)CN(CCN1CCS(=O)(=O)CC1)C3=O", "6.60 to 7.00"]
]}

* * *

TARGET: ALK (Homo sapiens)
TEST: ALK kinase assay (Kinase-Glo / AlphaScreen, purified NPM-ALK)
Assay type: biochemical
Set-up: fused to the complete intracytoplasmic portion of ALK containing the functional tyrosine kinase domain; 6xHis; made in house; host or cells: insect cells; the other entry of the earlier key: NPM1 (P06748, Nucleophosmin)
CONDITION_SUMMARY: Table 1; read-out: ALK IC50
Reported IC50 values for a set of compounds
READOUT_NAME: IC50

{"columns": ["COMPOUND", "TARGET", "READOUT_NAME", "ENDPOINT_RESULT"],
 "data": [
  ["O=C1NC(=O)c2cc3[nH]c(-c4c(NC[C@@H](O)c5cccc(Cl)c5)cc[nH]c4=O)nc3cc21", "ALK (Homo sapiens)", "IC50", "> 1000 nM"],
  ["Cc1ccsc1C[C@H](C)Nc1cc[nH]c(=O)c1-c1nc2cc3c(cc2[nH]1)C(=O)N(CCN(C)CCS(C)(=O)=O)C3", "ALK (Homo sapiens)", "IC50", "10 to 100 nM"],
  ["Cc1ccc(F)cc1C[C@H](C)Nc1cc[nH]c(=O)c1-c1nc2c(C)c3c(cc2[nH]1)CN(CCN1CCCC1)C3=O [drawing 321]", "ALK (Homo sapiens)", "IC50", "< 10 nM"],
  ["Cc1ccc(F)cc1C[C@H](C)Nc1cc[nH]c(=O)c1-c1nc2cc3c(cc2[nH]1)CN(CCN1CCOCC1)C3=O", "ALK (Homo sapiens)", "IC50", "100 to 250 nM"],
  ["C[C@@H](Cc1sccc1Cl)Nc1cc[nH]c(=O)c1-c1nc2cc3c(cc2[nH]1)C(=O)N(CCN1CCCC1)C3=O", "ALK (Homo sapiens)", "IC50", "100 to 250 nM"],
  ["Cc1ccsc1C[C@H](C)Nc1cc[nH]c(=O)c1-c1nc2cc3c(cc2[nH]1)CN(CCN1CCC[C@H]1C)C3=O", "ALK (Homo sapiens)", "IC50", "10 to 100 nM"]
]}
